Source listed as a melting point compilation (Tetko et al.; mined from patent text by program, amines drawn as free bases though some values may be those of a salt).

measuredMetric: melting point

Past entries and their recorded results:
Query string: I'd like to know its melting point. The compound in question is O=C(O)c1ccccc1C(=O)Nc1ccc(C(=O)N2CCCC(O)c3cc(Cl)ccc32)cn1 (stereo not drawn)
Result string: 153 to 155 °C

Query string: What value of melting point has been recorded for this entry: `CC#CCOc1cc(Oc2ccc(C#N)cc2)ncn1`
Result string: 162 °C

# per-item lookup of melting point; items listed below
1. CC(C)(C)c1cc(CC(S)C(=O)O)cc(C(C)(C)C)c1O (stereo not drawn)
2. Cc1nc(N2CCc3ccccc3CC2)c(C#N)c(=O)n1CCN(C)C
3. C=CC[C@H](C(N)=O)[C@@H](CC(C)C)C(=O)NC1C(=O)N(C)c2ccccc2-c2ccccc21 (stereo partly drawn)
4. CCCCCC1(Cl)Cc2cc(OCC(=O)O)c(Cl)c(Cl)c2C1=O (stereo not drawn)
5. CC(C)(C)OC(=O)N1C[C@H](O)C[C@H]1C(=O)OC(c1ccccc1)c1ccccc1

Result string:
1: 137 to 140 °C; 2: 134 to 139 °C; 3: 137 to 145 °C; 4: 122 to 124 °C; 5: 93 to 95 °C

I have 7 compounds here; please give me melting point for each one.
1. CC1(C)C=CC=CC1NCC1=NCCN1 (stereo not drawn)
2. Cc1scc2c1N(C(=O)N1CCCC(CCCN(C)C)C1)c1ccccc1NC2=O (stereo not drawn)
3. CS(=O)(=O)c1ccc(-c2cc(CO)sc2-c2ccc(F)cc2)cc1
4. N#CC(CC(=O)c1ccc(C(F)(F)F)cc1)C1CC1 (stereo not drawn)
5. CCCN(CCC)C1Cc2cccc(C(=O)O)c2NC1=O (stereo not drawn)
6. CNC(=O)c1cc(-c2ccc(OC)c(Cl)c2)nn(CC2CC2)c1=O
7. CC(C)OC(=O)N1CCC(c2nc3cc(-c4ccc(C(F)F)cc4)ccc3o2)CC1

Result string:
80 to 82 °C
137 to 139 °C
140 to 142 °C
91 to 93 °C
214 to 217 °C
172 to 173 °C
151 to 154 °C
